target: mu opiate receptor (MOR) (Rattus norvegicus); construct: from tissue; host or cells: striatum (membrane preparation); format: biochemical
Sequence (P33535 whole entry): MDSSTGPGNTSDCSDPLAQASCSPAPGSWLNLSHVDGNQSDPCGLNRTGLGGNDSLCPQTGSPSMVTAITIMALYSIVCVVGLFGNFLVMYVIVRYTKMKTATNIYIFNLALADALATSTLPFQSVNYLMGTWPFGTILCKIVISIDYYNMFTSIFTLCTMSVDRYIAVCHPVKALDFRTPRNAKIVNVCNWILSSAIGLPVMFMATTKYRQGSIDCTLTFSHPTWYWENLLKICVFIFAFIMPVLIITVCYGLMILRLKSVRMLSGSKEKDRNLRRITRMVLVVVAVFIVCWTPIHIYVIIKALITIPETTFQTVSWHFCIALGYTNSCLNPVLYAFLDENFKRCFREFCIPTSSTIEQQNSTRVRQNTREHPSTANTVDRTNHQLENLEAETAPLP
ASSAY READOUT: % DAMGO (1 μM) (%)
Provide only the numeric value, understood in %.

Illustrative cases are given below, each with its answer.
| MOLECULE | TESTED ON | % DAMGO (1 μM), % |
| --- | --- | --- |
| CC(=O)Nc1ccc(S(=O)(=O)N2CCC3(CC2)OCCN3S(=O)(=O)c2ccc(NC(C)=O)cc2)cc1 | mu opiate receptor (MOR) (Rattus norvegicus) | 108.9 |
| O=S(=O)(c1ccc(Br)c(C(F)(F)F)c1)N1CCC2(CC1)OCCN2S(=O)(=O)c1ccc(Br)c(C(F)(F)F)c1 | mu opiate receptor (MOR) (Rattus norvegicus) | 104.9 |
| OC(COc1cccc(F)c1)CN1CCc2ccccc2C1 (stereo not shown) | mu opiate receptor (MOR) (Rattus norvegicus) | 78.4 |

Fill blank: measured % DAMGO (1 μM) of the molecule COC(=O)c1ccc(S(=O)(=O)N2CCC3(CC2)OCCN3S(=O)(=O)c2ccc(C(=O)OC)cc2)cc1 is ____.
60.5

Cited source: patent US10760052B2
